Data provenance: paper PMC11200585

Assay: In vivo bioavailability / pharmacokinetic study IV and PO
Parameters: species or system male Sprague-Dawley rats
Details: male, Sprague-Dawley, whole blood; rat; PO 5 mg/kg; median
Protocol: Using the validated Phoenix® WinNonlin® 8.3 NCA tool Version 8 or higher (Certara L.P.), USA, pharmacokinetic parameters were computed. As appropriate, Cmax, Tmax, and exposures (AUCinfinity and AUClast) were calculated. Furthermore, pharmacokinetic characteristics such as distribution volume (Vd), […] (CL), elimination half-life (T1/2), and parenteral route like (C0) were evaluated. […]
# reported Tmax; entries follow
Field format: number, assumed min, no unit text.

| molecule_smiles | Tmax [min] |
| --- | --- |
| COc1ccccc1NC1=C(Cl)C(=O)c2nc(C)ccc2C1=O | 30 |

Okay, next one:
Q. Param item = CCOc1ccccc1NC1=C(Cl)C(=O)c2nc(C)ccc2C1=O ; retrieve measured Tmax.
A. 60
